The origin of these recorded values is patent US20260130395A1.

# Assay name: Stability of cannabinoid compounds and Vitamin E components in Beverage 1 (AB White) by LCMSMS
# Assay type: physicochemical
# Assay setup: AB White stored at 8° C.; 510 days
Measure: Stability of Plant-Derived Cannabinoid Compounds in AB White, 8° C. (µg/mL)
Give just the number in µg/mL; leave the unit off.

Inquiry: Data request, read-out Stability of Plant-Derived Cannabinoid Compounds in AB White, 8° C., for C=C(C)[C@@H]1CCC(C)=C[C@H]1c1c(O)cc(CCCCC)c(C(=O)O)c1O
Reply text: 1.61

Inquiry: Data request, read-out Stability of Plant-Derived Cannabinoid Compounds in AB White, 8° C., for CCCCCc1cc2c(c(O)c1C(=O)O)[C@@H]1C=C(C)CC[C@H]1C(C)(C)O2 [D9 THCA, delta-9-tetrahydrocannabinolic acid]
Reply text: 0.873

Inquiry: Data request, read-out Stability of Plant-Derived Cannabinoid Compounds in AB White, 8° C., for CCCCCc1cc(O)c2c(c1)OC(C)(C)[C@@H]1CCC(C)=C[C@@H]21 [D9 THC, delta-9-tetrahydrocannabinol, reference compound]
Reply text: 11.33

Inquiry: Data request, read-out Stability of Plant-Derived Cannabinoid Compounds in AB White, 8° C., for CCCc1cc(O)c2c(c1)OC(C)(C)[C@@H]1CCC(C)=C[C@@H]21 [THCV, delta-9-tetrahydrocannabivarin]
Reply text: 3.34

Inquiry: Data request, read-out Stability of Plant-Derived Cannabinoid Compounds in AB White, 8° C., for CCCCCc1cc(O)c2c(c1)OC1(C)CCC3C1C2C3(C)C (stereo not shown)
Reply text: 0.514

Inquiry: Data request, read-out Stability of Plant-Derived Cannabinoid Compounds in AB White, 8° C., for C=C(C)[C@@H]1CCC(C)=C[C@H]1c1c(O)cc(CCCCC)cc1O [CBD, cannabidiol, reference compound]
Reply text: 26.48

Inquiry: Data request, read-out Stability of Plant-Derived Cannabinoid Compounds in AB White, 8° C., for CCCCCc1cc(O)c2c(c1)OC(C)(C)c1ccc(C)cc1-2
Reply text: 2.60

Inquiry: Data request, read-out Stability of Plant-Derived Cannabinoid Compounds in AB White, 8° C., for CCCCCc1cc(O)c(C/C=C(\C)CCC=C(C)C)c(O)c1
Reply text: 4.49

Inquiry: Data request, read-out Stability of Plant-Derived Cannabinoid Compounds in AB White, 8° C., for C=C(C)[C@@H]1CCC(C)=C[C@H]1c1c(O)cc(CCC)cc1O
Reply text: 0.138

Now for the compound whose Stability of Plant-Derived Cannabinoid Compounds in AB White, 8° C. we want.
Inquiry: Data request, read-out Stability of Plant-Derived Cannabinoid Compounds in AB White, 8° C., for CCCCCc1cc(O)c2c(c1)OC(C)(CCC=C(C)C)C=C2 (stereo not shown)
Reply text: 0.295

----------
# Assay name: Stability of cannabinoid compounds and Vitamin E components in Beverage 2 (AB Red) by LCMSMS
# Format: physicochemical
# Assay setup: stored at 8° C., 360 days
Binary label based on Stability of Plant-Derived Cannabinoid Compounds in AB Red with cut-off 1 µg/mL: below gives Criterion met, not below gives Criterion not met.

Field: example entries. Status: answers known.
Inquiry: Determine whether this compound shows Stability of Plant-Derived Cannabinoid Compounds in AB Red lower than 1 µg/mL (ties excluded): CCCCCc1cc(O)c2c(c1)OC(C)(C)[C@@H]1CCC(C)=C[C@@H]21 [D9 THC, delta-9-tetrahydrocannabinol, reference compound]
Reply text: Criterion not met

Inquiry: Determine whether this compound shows Stability of Plant-Derived Cannabinoid Compounds in AB Red lower than 1 µg/mL (ties excluded): CCCCCc1cc(O)c2c(c1)OC1(C)CCC3C1C2C3(C)C (centres unmarked)
Reply text: Criterion met

Inquiry: Determine whether this compound shows Stability of Plant-Derived Cannabinoid Compounds in AB Red lower than 1 µg/mL (ties excluded): CCCCCc1cc(O)c2c(c1)OC(C)(C)c1ccc(C)cc1-2
Reply text: Criterion not met

Inquiry: Determine whether this compound shows Stability of Plant-Derived Cannabinoid Compounds in AB Red lower than 1 µg/mL (ties excluded): CCCc1cc(O)c2c(c1)OC(C)(C)[C@@H]1CCC(C)=C[C@@H]21 [THCV, delta-9-tetrahydrocannabivarin]
Reply text: Criterion not met

---
Inquiry: Determine whether this compound shows Stability of Plant-Derived Cannabinoid Compounds in AB Red lower than 1 µg/mL (ties excluded): CCCCCc1cc2c(c(O)c1C(=O)O)[C@@H]1C=C(C)CC[C@H]1C(C)(C)O2 [D9 THCA, delta-9-tetrahydrocannabinolic acid]
Reply text: Criterion not met

----------
# Assay name: Stability of cannabinoid entourage and Vitamin E components of the powder concentrate by LCMSMS
# Type: physicochemical
# Assay setup: powder stored at 21-25° C.; 15 days
Measure: Stability of Plant-Derived Cannabinoid Compounds in Powder Concentrate (mg/g powder)
Give just the number in mg/g powder; leave the unit off.

Completed entries (count: 6):
Inquiry: Data request, read-out Stability of Plant-Derived Cannabinoid Compounds in Powder Concentrate, for CCCCCc1cc(O)c(C/C=C(\C)CCC=C(C)C)c(O)c1 [CBG, cannabigerol]
Reply text: 1.08

Inquiry: Data request, read-out Stability of Plant-Derived Cannabinoid Compounds in Powder Concentrate, for CCCCCc1cc(O)c2c(c1)OC(C)(C)c1ccc(C)cc1-2 [CBN, cannabinol]
Reply text: 0.472

Inquiry: Data request, read-out Stability of Plant-Derived Cannabinoid Compounds in Powder Concentrate, for CCCCCc1cc(O)c2c(c1)OC1(C)CCC3C1C2C3(C)C (stereo not shown) [CBL, cannabicyclol]
Reply text: 0.048

Inquiry: Data request, read-out Stability of Plant-Derived Cannabinoid Compounds in Powder Concentrate, for CCCc1cc(O)c2c(c1)OC(C)(C)[C@@H]1CCC(C)=C[C@@H]21 [THCV, delta-9-tetrahydrocannabivarin]
Reply text: 0.684

Inquiry: Data request, read-out Stability of Plant-Derived Cannabinoid Compounds in Powder Concentrate, for C=C(C)[C@@H]1CCC(C)=C[C@H]1c1c(O)cc(CCC)cc1O [CBDV, cannabidivarin]
Reply text: 0.050

Inquiry: Data request, read-out Stability of Plant-Derived Cannabinoid Compounds in Powder Concentrate, for C=C(C)[C@@H]1CCC(C)=C[C@H]1c1c(O)cc(CCCCC)c(C(=O)O)c1O [CBDA, cannabidiolic acid]
Reply text: 0.399

---
Inquiry: Data request, read-out Stability of Plant-Derived Cannabinoid Compounds in Powder Concentrate, for CCCCCc1cc(O)c2c(c1)OC(C)(CCC=C(C)C)C=C2 (stereo not shown) [CBC, cannabichromene]
Reply text: 0.073

Inquiry: Data request, read-out Stability of Plant-Derived Cannabinoid Compounds in Powder Concentrate, for CCCCCc1cc(O)c2c(c1)OC(C)(C)[C@@H]1CCC(C)=C[C@@H]21 [D9 THC, delta-9-tetrahydrocannabinol, reference compound]
Reply text: 2.49

Inquiry: Data request, read-out Stability of Plant-Derived Cannabinoid Compounds in Powder Concentrate, for CCCCCc1cc2c(c(O)c1C(=O)O)[C@@H]1C=C(C)CC[C@H]1C(C)(C)O2 [D9 THCA, delta-9-tetrahydrocannabinolic acid]
Reply text: 0.151

Inquiry: Data request, read-out Stability of Plant-Derived Cannabinoid Compounds in Powder Concentrate, for C=C(C)[C@@H]1CCC(C)=C[C@H]1c1c(O)cc(CCCCC)cc1O [CBD, cannabidiol, reference compound]
Reply text: 5.85

----------
# Assay name: Stability of cannabinoid compounds and Vitamin E components in Beverage 1 (AB White) by LCMSMS
# Type: physicochemical
# Assay setup: AB White stored at 8° C.; 5 days
Measure: Stability of Plant-Derived Cannabinoid Compounds in AB White, 8° C. (µg/mL)
Give just the number in µg/mL; leave the unit off.

Inquiry: Data request, read-out Stability of Plant-Derived Cannabinoid Compounds in AB White, 8° C., for CCCCCc1cc(O)c2c(c1)OC(C)(C)[C@@H]1CCC(C)=C[C@@H]21 [D9 THC, delta-9-tetrahydrocannabinol, reference compound]
Reply text: 12.11

----------
# Assay name: Stability of cannabinoid compounds and Vitamin E components in Beverage 2 (AB Red) by LCMSMS
# Assay type: physicochemical
# Assay setup: stored at 8° C., 60 days
The compounds listed here are annotated with their Stability of Plant-Derived Cannabinoid Compounds in AB Red.
Give just the number in µg/mL; leave the unit off.

Inquiry: Data request, read-out Stability of Plant-Derived Cannabinoid Compounds in AB Red, for CCCCCc1cc(O)c2c(c1)OC(C)(CCC=C(C)C)C=C2 (stereo not drawn)
Reply text: 0.278

---
Inquiry: Data request, read-out Stability of Plant-Derived Cannabinoid Compounds in AB Red, for C=C(C)[C@@H]1CCC(C)=C[C@H]1c1c(O)cc(CCCCC)c(C(=O)O)c1O
Reply text: 1.66

Inquiry: Data request, read-out Stability of Plant-Derived Cannabinoid Compounds in AB Red, for CCCCCc1cc(O)c(C/C=C(\C)CCC=C(C)C)c(O)c1
Reply text: 4.70

Inquiry: Data request, read-out Stability of Plant-Derived Cannabinoid Compounds in AB Red, for CCCCCc1cc(O)c2c(c1)OC(C)(C)[C@@H]1CCC(C)=C[C@@H]21 [D9 THC, delta-9-tetrahydrocannabinol, reference compound]
Reply text: 12.5

Inquiry: Data request, read-out Stability of Plant-Derived Cannabinoid Compounds in AB Red, for CCCc1cc(O)c2c(c1)OC(C)(C)[C@@H]1CCC(C)=C[C@@H]21 [THCV, delta-9-tetrahydrocannabivarin]
Reply text: 3.11

Inquiry: Data request, read-out Stability of Plant-Derived Cannabinoid Compounds in AB Red, for CCCCCc1cc(O)c2c(c1)OC1(C)CCC3C1C2C3(C)C (stereo not drawn)
Reply text: 0.491

Inquiry: Data request, read-out Stability of Plant-Derived Cannabinoid Compounds in AB Red, for CCCCCc1cc(O)c2c(c1)OC(C)(C)c1ccc(C)cc1-2
Reply text: 2.73

Inquiry: Data request, read-out Stability of Plant-Derived Cannabinoid Compounds in AB Red, for CCCCCc1cc2c(c(O)c1C(=O)O)[C@@H]1C=C(C)CC[C@H]1C(C)(C)O2 [D9 THCA, delta-9-tetrahydrocannabinolic acid]
Reply text: 1.32

Inquiry: Data request, read-out Stability of Plant-Derived Cannabinoid Compounds in AB Red, for C=C(C)[C@@H]1CCC(C)=C[C@H]1c1c(O)cc(CCC)cc1O
Reply text: 0.199
